%Inh listing for selected compounds.
# Tested on: SRPK2
# Conditions: concentration: 1 μM, replicates: in singlicate; n = 1;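 note: KINOMEscan kinase panel screen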
Readout Type: %Inh (%)

Fc1ccc(-c2nc3n(c2-c2ccncc2)CCS3)cc1 [GI98581]; 0
COc1ccc2cc(-c3nc(-c4ccccc4C(C)C)[nH]c3-c3ccncc3)ccc2c1 [SB-660566]; 0
COc1ccc(Nc2nccc(N3CCC(NC(=O)C(C)c4ccc(Cl)cc4)CC3)n2)cc1 (centres unmarked) [GSK1379812]; 0
Cc1nccc(-c2c(-c3ccc(F)cc3)ncn2CCCN2CCOCC2)n1.Cl [SB-282975]; 0
COC(=O)C(Cc1ccccc1)NC(=O)NC1CCN(c2ccnc(Nc3ccc(F)cc3)n2)C1 (centres unmarked) [GSK1379714]; 38
CC(C)c1cc(-c2ccc3c(N)n[nH]c3c2)nc(N)n1 [GSK2250882]; 0
CNc1nc(-c2ccc3c(N)n[nH]c3c2)cc(N2C[C@@H](C(=O)Nc3ccccc3)CC[C@H]2C)n1 [GSK2298859]; 29
COc1cccc(CNC(=O)NC2CCN(c3ccnc(Nc4ccc(F)cc4)n3)C2)c1 (centres unmarked) [GSK1379723]; 0

---

# Tested on: EPHA1
# Conditions: concentration: 1 μM, replicates: in singlicate; n = 1
%Inh listing for selected compounds.
Readout Type: %Inh (%)

Cc1ccc(NC(=O)Nc2ccc(Cl)cc2)cc1-c1ccc(C(=O)Nc2ccncc2)cc1 [GSK1398472]; 12
COc1nccc(-c2c(-c3ccc(F)cc3)ncn2CCCN2CCOCC2)n1 [SB-282852]; 0
Cc1ccccc1-c1cc(-c2c[nH]nc2-c2ccccn2)ccn1 [GW680061]; 3
COc1ccc(Nc2nccc(NCCNC(=O)Nc3cc(C)ccc3C)n2)cc1 [GSK1379899]; 5
COc1ccc(-c2coc3ccc(-c4nnc(C)o4)cc23)cc1; 0
CC[C@@H]1CO[C@H](C(=O)Nc2ccccc2)CN1c1cc(-c2ccc3c(N)n[nH]c3c2)nc(NC)n1 [GSK2376236]; 3

---

# System: ZAP70
# Conditions: concentration: 1 μM, replicates: in singlicate; n = 1
Readout Type: %Inh (%)

COc1nccc(-c2c(-c3ccc(F)cc3)ncn2CCCN2CCOCC2)n1; 31
Cl.Cl.Cl.N#Cc1ccc(CCNc2nccc(-c3cccc(CN4CCNCC4)c3)n2)cc1; 0
Cn1cnc2c(N)ncnc21; 12
Cc1c(Cn2c3ccccc3n3c(=O)cc(N4CCOCC4)nc23)cccc1C(F)(F)F; 0
CN1c2ccc(-c3ccc(C(N)=O)cc3)cc2-c2[nH]ncc2S1(=O)=O; 5
CS(=O)(=O)Cc1ccc(Nc2nccc(-c3c(-c4cccc(NC(=O)C5CCCCC5)c4)nn4ncccc34)n2)cc1; 22
CC(=O)c1c(C)c2cnc(Nc3ccc(N4CCNCC4)cn3)nc2n(C2CCCC2)c1=O; 0
O=C(Nc1n[nH]c2nc(-c3cccs3)c(Br)cc12)C1CC1; 0
CC[C@@H]1CO[C@H](C(=O)Nc2ccccc2)CN1c1cc(-c2ccc3c(N)n[nH]c3c2)nc(NC)n1; 0
Cc1ccc(-c2nc(Nc3ccncc3)c3ccccc3n2)s1; 0
O=C1NC(=O)C(c2ccc(Cl)cc2)=C1Nc1ccc(O)cc1; 0
COc1cccc(NC(=O)Nc2ccc(C)c(-c3ccc(C(=O)Nc4ccncc4)cc3)c2)c1; 0
COc1ccc(CSc2nnc(-c3ccc4nccn4c3)o2)cc1C(F)(F)F; 0
CC(C)c1cc(-c2ccc3c(N)n[nH]c3c2)nc(N)n1; 0
O=c1cc(N2CCOCC2)nc2n(Cc3cccc(Cl)c3Cl)c3ccccc3n12; 0
COc1ccc2cc(-c3nc(-c4ccccc4C(C)C)[nH]c3-c3ccncc3)ccc2c1; 0
Cc1cccc2c(-c3ccncn3)c(-c3ccc(F)cc3)nn12; 20
Cc1cnc(N)c(/C=C/c2cncc(C(=O)NCCc3ccc(Cl)cc3Cl)c2)c1.Cl; 0
CCn1c(-c2ccccc2)nc2cnccc21; 0
Cn1cncc1C(=O)NC1CCN(c2ccnc(Nc3ccc(F)cc3)n2)C1 (centres unmarked); 43

---

# Tested on: FGFR4
# Conditions: concentration: 1 μM, replicates: in singlicate; n = 1
Binary classification by %Inh, with 10% as an inclusive lower bound for label 1; all other cases are label 0.

Cc1ccc(-c2nc(Nc3ccncc3)c3ccccc3n2)s1; label 0
COC(=O)C(Cc1ccccc1)NC(=O)NC1CCN(c2ccnc(Nc3ccc(F)cc3)n2)C1 (stereo not drawn); label 0
CCn1c(-c2ccccc2)nc2cnccc21; label 1
Cc1ccc(NC(=O)Nc2ccccc2)cc1-c1ccc(C(=O)Nc2ccncc2)cc1; label 1
Cc1ccccc1Cn1ccn2c(=O)cc(N3CCOCC3)nc12; label 1
CC(=O)c1c(C)c2cnc(Nc3ccc(N4CCNCC4)cn3)nc2n(C2CCCC2)c1=O; label 0
O=c1cc(N2CCOCC2)nc2n(Cc3ccccc3F)ccn12; label 0
O=C(Nc1n[nH]c2nc(-c3cccs3)c(Br)cc12)C1CC1; label 0
COc1ccc(Nc2nccc(NCCNC(=O)Nc3cc(C)ccc3C)n2)cc1; label 0
COc1ccc(CSc2nnc(-c3ccc4c(c3)CCO4)o2)cc1; label 0
Cc1ccc(NC(=O)Nc2ccc(Cl)c(C(F)(F)F)c2)cc1-c1ccc(C(=O)Nc2ccncc2)cc1; label 1

---

# Test system: TBK1
# Conditions: concentration: 1 μM, replicates: in singlicate; n = 1
%Inh listing for selected compounds.
Readout Type: %Inh (%)

O=C1NC(=O)C(c2ccc(Cl)cc2)=C1Nc1cccc(Cl)c1; 15
O=C(Nc1n[nH]c2nc(-c3cccs3)c(Br)cc12)C1CC1; 33
CSc1ccc(-c2nc3n(c2-c2ccncc2)CCC3)cc1; 0
COc1ccc(CSc2nnc(-c3ccc4nccn4c3)o2)cc1C(F)(F)F; 10
COc1ccc(Nc2nccc(N3CCC(NC(=O)C(C)c4ccc(Cl)cc4)CC3)n2)cc1 (stereo not shown); 21
O=C1NC(=O)C(c2ccc(Cl)cc2)=C1Nc1ccc(O)cc1; 0
CCc1ccc(-c2ccc3c(c2)-c2n[nH]cc2S(=O)(=O)N3C)cc1; 0

---

# System: MKNK2
# Conditions: concentration: 1 μM, replicates: in singlicate; n = 1
%Inh listing for selected molecules.
Readout Type: %Inh (%)

Fc1ccc(-c2nc[nH]c2-c2ccncc2)cc1; 0
CCn1c(-c2c(N)noc2C)nc2cnccc21; 12
CNc1cc(-c2ccc3c(N)n[nH]c3c2)nc(N)n1; 31
CN1c2ccc(-c3ccc(C(N)=O)cc3)cc2-c2[nH]ncc2S1(=O)=O; 0

---

%Inh listing for selected compounds.
# Test system: CDK4
# Conditions: concentration: 1 μM, replicates: in singlicate; n = 1
Readout Type: %Inh

COc1ccc(Nc2nccc(N3CCC(NC(=O)C(C)c4ccc(Cl)cc4)CC3)n2)cc1 (stereo not drawn); 33%
O=C(Nc1n[nH]c2nc(-c3ccco3)c(Br)cc12)C1CCN(Cc2ccccc2)C1.O=C(O)[C@H](O)[C@@H](O)C(=O)O (stereo not drawn); 14%
Cc1cccc2c(-c3ccncn3)c(-c3ccc(F)cc3)nn12; 0%
COc1cccc(C2=C(Nc3cc(Cl)c(O)c(Cl)c3)C(=O)NC2=O)c1; 0%
Cc1ccc(NC(=O)Nc2ccc(Cl)c(C(F)(F)F)c2)cc1-c1ccc(C(=O)Nc2ccncc2)cc1; 0%
O=C1NC(=O)C(c2ccc(Cl)cc2)=C1Nc1ccc(O)cc1; 0%
COc1ccc2cc(-c3nc(-c4ccccc4C(C)C)[nH]c3-c3ccncc3)ccc2c1; 9%
Cc1c(Cn2c3ccccc3n3c(=O)cc(N4CCOCC4)nc23)cccc1C(F)(F)F; 0%
Nc1cccc(-c2ccc3c(N)n[nH]c3c2)n1; 0%
O=c1cc(N2CCOCC2)nc2n(Cc3ccccc3F)ccn12; 0%
CNCc1ccc2nc(NC(=O)c3ccc(C(C)(C)C)cc3)cn2c1; 3%
CC(=O)c1c(C)c2cnc(Nc3ccn(C)n3)nc2n(C2CCCC2)c1=O; 19%

---

# Tested on: HIPK1
# Conditions: concentration: 1 μM, replicates: in singlicate; n = 1
Readout Type: %Inh

CS(=O)(=O)Cc1ccc(Nc2nccc(-c3c(-c4cccc(NC(=O)C5CCCCC5)c4)nn4ncccc34)n2)cc1 [GSK350559]; 5%
CC(C)c1ccc(O)cc1Nc1ccnc2ccc(C(F)(F)F)cc12 [GW482059]; 0%
COc1ccc(-c2coc3ccc(-c4nnc(C)o4)cc23)cc1; 37%
COc1cccc(NC(=O)Nc2ccc(C)c(-c3ccc(C(=O)Nc4ccncc4)cc3)c2)c1 [GSK1398474]; 0%
CCn1c(-c2ccccc2)nc2cnccc21 [SB-733416]; 0%

---

# Tested on: PKAC-beta
# Construct: gene PRKACB
# Conditions: concentration: 1 μM, replicates: in singlicate; n = 1
Readout Type: %Inh (%)

CC(=O)c1cccc(NC(=O)NC2CCN(c3ccnc(Nc4ccc(F)cc4)n3)C2)c1 (centres unmarked); 0
COC(=O)c1cccc(NC(=O)NC2CCN(c3ccnc(Nc4ccc(F)cc4)n3)C2)c1 (centres unmarked); 0
Cn1cnc2c(N)ncnc21; 0
COc1cccc(CNC(=O)NC2CCN(c3ccnc(Nc4ccc(F)cc4)n3)C2)c1 (centres unmarked); 0
Cc1c(Cn2c(C)c(C)n3c(=O)cc(N4CCOCC4)nc23)cccc1C(F)(F)F; 0
